Let's look at some molecules and their measured log10 of EC90.
system: Nonstructural protein 5A (Hepatitis C virus), Q5L478 [UNDEFINED MUTATION]; assay: Inhibition of NS5A L31V mutant in HCV genotype 1a assessed as reduction in replicon RNA level after 3 days by cell based RT-PCR method; conditions: Hepatitis C virus subtype 1a
Scale: log10; quantity: EC90; unit before log: nM

A selection of reference data follows.
COC(=O)N[C@H](C(=O)N1CC2(C[C@H]1c1ncc(-c3cc(F)c4c(c3)OC(c3cccc(OC)c3)n3c-4cc4cc(-c5cnc([C@@H]6CC7(CN6C(=O)[C@@H](NC(=O)OC)C(C)C)OCCCO7)[nH]5)ccc43)[nH]1)OCCCO2)C(C)C (mixture of isomers): -0.70
COC(=O)N[C@H](C(=O)N1CC2(CC2)C[C@H]1c1ncc(-c2cc(F)c3c(c2)OC(c2cccc(OC)c2)n2c-3cc3cc(-c4cnc([C@@H]5CC6(CC6)CN5C(=O)[C@@H](NC(=O)OC)C(C)C)[nH]4)ccc32)[nH]1)C(C)C (stereo not given in full): -1.30
COC(=O)N[C@H](C(=O)N1CCC[C@H]1c1ncc(-c2cc(F)c3c(c2)OC(c2ccccc2)n2c-3cc3cc(-c4cnc([C@@H]5C[C@H]6C[C@H]6N5C(=O)[C@@H](NC(=O)OC)C(C)C)[nH]4)ccc32)[nH]1)C(C)C (stereo not given in full): -0.38
COC(=O)N[C@H](C(=O)N1[C@@H]2CCCC[C@@H]2C[C@H]1c1ncc(-c2cc(F)c3c(c2)OC(c2cccc(OC)c2)n2c-3cc3cc(-c4cnc([C@@H]5C[C@H]6CCCC[C@H]6N5C(=O)[C@@H](NC(=O)OC)C(C)C)[nH]4)ccc32)[nH]1)C(C)C (stereo not given in full): -0.29

Form field, log10 of EC90 with Nonstructural protein 5A (Hepatitis C virus), Q5L478 [UNDEFINED MUTATION], item COC(=O)N[C@H](C(=O)N1CCC[C@H]1c1ncc(-c2ccc3c(c2)cc2n3C(c3ccccc3)Oc3cc(-c4cnc([C@@H]5C[C@@H](F)CN5C(=O)[C@@H](NC(=O)OC)C(C)C)[nH]4)cc(F)c3-2)[nH]1)C(C)C (stereo not given in full) : 0.34
